Data credit: patent US20260070976A1

- STUDY_SYSTEM: T1, human PILRA G78 on HEK293F cells (human, UniProt Q9UKJ1 20-303)
- T1 construct: also called hA; G78 OE
- T1 sequence (Q9UKJ1 20-303 R78G): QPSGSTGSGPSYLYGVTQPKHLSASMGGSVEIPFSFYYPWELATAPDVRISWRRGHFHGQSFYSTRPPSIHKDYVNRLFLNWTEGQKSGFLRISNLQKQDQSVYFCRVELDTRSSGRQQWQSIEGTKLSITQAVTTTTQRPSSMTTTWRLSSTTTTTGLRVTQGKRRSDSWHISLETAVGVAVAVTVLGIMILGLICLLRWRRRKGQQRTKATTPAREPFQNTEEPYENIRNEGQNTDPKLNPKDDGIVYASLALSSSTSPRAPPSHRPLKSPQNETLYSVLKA
- EXPERIMENTAL_DETAILS: FACS on HEK293F cells, binding on human PILRA (hA) over human PILRB (hB)
Listed here: items and their measured hA/hB binding ratio on HEK293F.
Give the value as a plain number.

Challenge: What does the record list as hA/hB binding ratio on HEK293F for X16 (antibody, human IgG4, V domains shown, conditioned media in the HEK293F assays) VH: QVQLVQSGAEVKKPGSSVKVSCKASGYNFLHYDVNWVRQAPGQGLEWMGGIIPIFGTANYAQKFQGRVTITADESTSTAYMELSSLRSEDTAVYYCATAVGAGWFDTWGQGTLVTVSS VL: DIVMTQSPDSLAVSLGERATINCKSSQSVYFDVNNKNYLAWYQQKPGQPPKLLIYWASTRESGVPDRFSGSGSGTDFTLTISSLQAEDVAVYYCQQYFEEPYTFGQGTRLEIK ?
Response given: 6.1

Challenge: # query: hA/hB binding ratio on HEK293F of entry X7 (antibody, human IgG4, V domains shown, conditioned media in the HEK293F assays) VH: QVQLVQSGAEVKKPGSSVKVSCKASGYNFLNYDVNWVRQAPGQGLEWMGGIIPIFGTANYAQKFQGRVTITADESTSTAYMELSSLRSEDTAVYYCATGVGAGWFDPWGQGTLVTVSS VL: DIVMTQSPDSLAVSLGERATINCKSSQSVFFDENNKNYLAWYQQKPGQPPKLLIYWASTRESGVPDRFSGSGSGTDFTLTISSLQAEDVAVYYCQQYFEEPYTFGQGTRLEIK
Response given: 63

Query binder follows.
Challenge: Request the reported hA/hB binding ratio on HEK293F associated with X14 (antibody, human IgG4, V domains shown, conditioned media in the HEK293F assays) VH: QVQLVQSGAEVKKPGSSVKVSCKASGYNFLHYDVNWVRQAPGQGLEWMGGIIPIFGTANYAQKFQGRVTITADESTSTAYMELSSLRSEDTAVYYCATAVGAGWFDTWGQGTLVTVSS VL: DIVMTQSPDSLAVSLGERATINCKSSQSVYFSPNNKNYLAWYQQKPGQPPKLLIYWASTRESGVPDRFSGSGSGTDFTLTISSLQAEDVAVYYCQQYFEEPYTFGQGTRLEIK
Response given: 7.9
